target or test system: MTHFD2 recombinant human enzyme (Homo sapiens, UniProt P13995)
Sequence (P13995 36-350): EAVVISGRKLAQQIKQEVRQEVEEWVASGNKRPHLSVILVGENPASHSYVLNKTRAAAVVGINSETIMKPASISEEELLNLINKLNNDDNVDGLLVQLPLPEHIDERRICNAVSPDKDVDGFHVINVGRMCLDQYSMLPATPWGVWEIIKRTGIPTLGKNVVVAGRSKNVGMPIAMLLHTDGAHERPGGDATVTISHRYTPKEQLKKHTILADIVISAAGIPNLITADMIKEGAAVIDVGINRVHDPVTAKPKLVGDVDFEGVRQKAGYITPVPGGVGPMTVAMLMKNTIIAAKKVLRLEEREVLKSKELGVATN
assay text: MTHFD2 inhibition assay (NAD(P)H-Glo luminescence)
experimental conditions: selectivity of MTHFD2 inhibition over MTHFD1, band
experimental readout: MTHFD1/MTHFD2 IC50 ratio

Example cases with answers are listed next.
{"compound": "COC[C@H]1CN(c2cc(C)c3c4c(c(=O)oc3c2C)CN(C(=O)c2ccc(C(=O)NS(=O)(=O)N3CCCC3)c(OC3CCC3)c2)CC4)CCN1C [Example 1]", "result": "F (<3)"}
{"compound": "[2H]C([2H])([2H])Oc1cc(C(=O)N2CCc3c(c(=O)oc4c(C)c(N5CCN(C)[C@@H](COC)C5)cc(C)c34)C2)c(F)cc1C(=O)NS(=O)(=O)N1CCCC1 [Example 225]", "result": "J (>30)"}
{"compound": "COC[C@H]1CN(c2cc(C)c3c4c(c(=O)oc3c2C)CN(C(=O)c2cc(N(C)C)c(C(=O)NS(=O)(=O)N3CC5(CCC5)C3)cc2F)CC4)CCN1C [Example 253]", "result": "J (>30)"}
{"compound": "COC[C@H]1CN(c2ccc3c4c(c(=O)oc3c2C)CN(C(=O)c2ccc(C(=O)NS(=O)(=O)C3(C)CC3)c(O[C@@H]3C[C@@H]5C[C@@H]5C3)c2F)CC4)CCN1C [Example 59]", "result": "F (<3)"}

Okay, next one:
Quick check: MTHFD1/MTHFD2 IC50 ratio on MTHFD2 recombinant human enzyme (Homo sapiens, UniProt P13995), item CCOc1c(C(=O)NS(=O)(=O)N(C2CC2)C2CC2)ccc(C(=O)N2CCc3c(c(=O)oc4c(C)c(N5CCN(C)[C@@H](COC)C5)cc(C)c34)C2)c1F [Example 231] ?
F (<3)
